molecular target: PDE4B1 (Homo sapiens, UniProt Q07343); construct: purchased BPS 60041; test: PDE4 activity inhibition assay, PDE4B1; assay type: biochemical; conditions: FAM-cAMP substrate, 30 minutes at room temperature
Sequence (Q07343 whole entry): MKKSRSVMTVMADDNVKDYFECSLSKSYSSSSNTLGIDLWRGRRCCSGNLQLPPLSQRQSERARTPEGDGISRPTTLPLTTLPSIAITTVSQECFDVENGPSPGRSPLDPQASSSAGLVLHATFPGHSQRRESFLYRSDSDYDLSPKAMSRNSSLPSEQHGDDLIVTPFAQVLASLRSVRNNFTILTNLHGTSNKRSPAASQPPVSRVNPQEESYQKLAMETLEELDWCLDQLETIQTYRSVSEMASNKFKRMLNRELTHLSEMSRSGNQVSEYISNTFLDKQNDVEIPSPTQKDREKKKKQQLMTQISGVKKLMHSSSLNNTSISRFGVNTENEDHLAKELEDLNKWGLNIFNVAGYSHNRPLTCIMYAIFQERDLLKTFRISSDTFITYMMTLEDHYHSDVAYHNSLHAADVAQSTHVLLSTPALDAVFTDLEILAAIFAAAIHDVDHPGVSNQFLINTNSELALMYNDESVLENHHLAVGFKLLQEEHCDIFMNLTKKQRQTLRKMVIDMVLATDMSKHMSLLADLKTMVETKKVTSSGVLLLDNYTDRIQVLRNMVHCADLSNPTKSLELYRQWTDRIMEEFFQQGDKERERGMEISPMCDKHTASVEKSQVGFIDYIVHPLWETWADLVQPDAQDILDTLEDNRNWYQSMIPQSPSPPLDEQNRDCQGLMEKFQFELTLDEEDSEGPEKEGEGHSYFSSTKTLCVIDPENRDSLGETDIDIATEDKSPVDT
# 1 = IC50 below 6 nM (exclusive); -1 = IC50 at/above 6 nM

Past entries and their recorded results:
[
  {
    "Molecule": "CCOc1nc([C@@H](CS(C)(=O)=O)N2C(=O)c3cccc(NC(=O)C4CC4)c3C2=O)ccc1OC [Compound 770]",
    "Class Assignment": 1
  },
  {
    "Molecule": "CCOc1nc([C@@H](CS(C)(=O)=O)N2C(=O)c3cc(C#N)cc(NC(C)=O)c3C2=O)ccc1OC [Compound 734]",
    "Class Assignment": -1
  },
  {
    "Molecule": "CCOc1nc(C(CS(C)(=O)=O)N2C(=O)c3cccc(NS(C)(=O)=O)c3C2=O)ccc1OC (stereo not drawn) [Compound 737]",
    "Class Assignment": -1
  },
  {
    "Molecule": "[2H]C([2H])([2H])Oc1ccc([C@@H](CS(C)(=O)=O)N2C(=O)c3c(F)ccc(NC(C)=O)c3C2=O)cc1OC([2H])([2H])C([2H])([2H])[2H] [Compound 107]",
    "Class Assignment": -1
  },
  {
    "Molecule": "CCOc1nc([C@H](CS(C)(=O)=O)N2C(=O)c3cc(F)cc(NC(C)=O)c3C2=O)ccc1OC [Compound 709]",
    "Class Assignment": -1
  }
]

Ask | Lab log: compare recorded IC50 with 6 nM; is it strictly lower for [2H]C([2H])([2H])Oc1ccc([C@@H](CS(C)(=O)=O)N2C(=O)c3cc(F)cc(NC(C)=O)c3C2=O)nc1OCC [Compound 724] ?
Reply | 1
